B1: library; numbered along this chain (parent)
chain: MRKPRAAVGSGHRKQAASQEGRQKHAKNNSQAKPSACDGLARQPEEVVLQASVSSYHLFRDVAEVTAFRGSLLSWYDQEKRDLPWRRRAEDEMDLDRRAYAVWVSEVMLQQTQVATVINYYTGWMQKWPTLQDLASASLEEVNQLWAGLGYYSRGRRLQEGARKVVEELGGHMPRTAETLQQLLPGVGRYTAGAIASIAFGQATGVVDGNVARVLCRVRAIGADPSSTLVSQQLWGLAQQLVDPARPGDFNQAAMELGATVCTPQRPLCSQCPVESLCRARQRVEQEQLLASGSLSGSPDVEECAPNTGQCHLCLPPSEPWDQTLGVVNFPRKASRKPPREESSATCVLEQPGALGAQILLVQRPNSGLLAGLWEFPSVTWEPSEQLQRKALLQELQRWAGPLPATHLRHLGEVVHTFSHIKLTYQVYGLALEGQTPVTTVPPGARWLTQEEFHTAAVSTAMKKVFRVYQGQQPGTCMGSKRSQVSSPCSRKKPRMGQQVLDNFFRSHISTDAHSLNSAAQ

Variants of: B1
run description: 8OG:A repair function score (normalized; synonymous = 0, nonsense = -1) (normalized log-likelihood score); higher = more repair activity (WT-like);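 also: cells sorted at 72 h after reporter transfection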
condition info: with 8OG:A DNA repair reporter (GFP) in HEK-293 MUTYH KO cells
readout label: 8OG:A repair function score
Numbers only.

Consider the following illustrative entries.
L83E = -0.902
P44C = -0.247
H410T = -0.322

Give 8OG:A repair function score for each listed item.
1. R217T
2. W374G
3. P442R
4. Q252G

-1.02
-0.847
-0.0654
-0.891

Source of measurements: the supplement of paper PMC11908140
